Data credit: patent US20130245355A1

target: PDK1 (Homo sapiens, UniProt O15530); construct: His6 (N); test: Test for the inhibition of PDK1 (flashplate, 33P-ATP); conditions: His6-PDK1 (1-50) 3.4 nM, 4 μM ATP, 30° C., 60 min; read-out: IC50 [PDK1] biochemical
Sequence (O15530 51-556 limits assumed): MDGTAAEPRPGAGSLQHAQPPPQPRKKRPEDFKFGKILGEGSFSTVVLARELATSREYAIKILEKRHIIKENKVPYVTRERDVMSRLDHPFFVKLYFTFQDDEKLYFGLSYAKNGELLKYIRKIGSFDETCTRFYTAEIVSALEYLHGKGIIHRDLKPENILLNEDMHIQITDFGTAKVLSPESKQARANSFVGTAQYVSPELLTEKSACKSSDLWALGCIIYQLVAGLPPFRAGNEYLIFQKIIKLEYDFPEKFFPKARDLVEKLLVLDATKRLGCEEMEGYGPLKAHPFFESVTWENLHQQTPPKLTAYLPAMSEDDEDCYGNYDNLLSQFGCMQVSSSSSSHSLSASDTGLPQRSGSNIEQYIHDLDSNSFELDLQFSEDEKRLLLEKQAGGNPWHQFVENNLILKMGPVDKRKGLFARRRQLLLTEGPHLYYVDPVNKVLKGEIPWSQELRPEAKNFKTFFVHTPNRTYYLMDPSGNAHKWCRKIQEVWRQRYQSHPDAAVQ
pIC50: −log10 of the molar value.
reported.endpoint: pIC50

Some solved cases for reference:
>  <compound>
COc1ccc(C2(c3nc(-c4c[nH]c5ncc(-c6cnn(C)c6)cc45)n[nH]3)CC2)cn1

>  <pIC50>
5.00 to 6.00

$$$$
>  <compound>
C=C(c1cc(-c2c[nH]c3ncc(-c4cnn(C)c4)cc23)n[nH]1)c1ccccc1F

>  <pIC50>
6.00 to 9.30

$$$$

Q: Quick check: pIC50 of Cn1cc(-c2cnc3[nH]cc(-c4nnc(C(O)c5ccccc5Cl)o4)c3c2)cn1 (racemic) ?
Ans: 6.00 to 9.30

Q: "Cn1cc(-c2cnc3[nH]cc(-c4nnc([C@@H](N)c5ccccc5Cl)o4)c3c2)cn1" , same question.
Ans: 6.00 to 9.30

Q: "Cn1cc(-c2cnc3[nH]cc(-c4n[nH]c(C5(c6cccnc6)CC5)n4)c3c2)cn1" , same question.
Ans: 6.00 to 9.30

Q: Cn1cc(-c2cnc3[nH]cc(-c4cc(C(C)(O)c5ccccc5F)on4)c3c2)cn1 (stereo not shown) , same question.
Ans: 6.00 to 9.30

Q: "Cn1cc(-c2cnc3[nH]cc(-c4nnc(C5(c6ccc(Cl)nc6)CC5)o4)c3c2)cn1" , same question.
Ans: 5.00 to 6.00

Q: Cn1cc(-c2cnc3[nH]cc(-c4nnc(C(C)(O)c5ccccc5F)o4)c3c2)cn1 (stereo not shown) , same question.
Ans: 6.00 to 9.30

Q: Cn1cc(-c2cnc3[nH]cc(-c4nc(C(C)(O)c5ccccc5)no4)c3c2)cn1 (stereo not shown) , same question.
Ans: 5.00 to 6.00

###

Entries and their IC50 values follow.
biological target: PDK1 (Homo sapiens); construct: His6 (N); assay: Test for the inhibition of PDK1 (flashplate, 33P-ATP); conditions: His6-PDK1 (1-50) 3.4 nM, 4 μM ATP, 30° C., 60 min; read-out: IC50 [PDK1] biochemical

Some solved cases for reference:
>  <compound>
CC[C@@](O)(c1cc(-c2c[nH]c3ncc(-c4cnn(C)c4)cc23)no1)c1ccccc1F (single isomer, unassigned)

>  <endpoint.value>
0.0005 to 1 µM

$$$$
>  <compound>
CCN(CC)Cc1cc(-c2c[nH]c3ncc(-c4cnn(C)c4)cc23)no1

>  <endpoint.value>
0.0005 to 1 µM

$$$$
>  <compound>
Cn1cc(-c2cnc3[nH]cc(-c4nnc(C(O)c5ccc(Cl)cc5)o4)c3c2)cn1 (stereo not shown)

>  <endpoint.value>
1 to 10 µM

$$$$

Q: Request - read-out IC50 | tested on PDK1 (Homo sapiens) | compound Cn1cc(-c2cnc3[nH]cc(-c4cc(C(O)c5ccccc5)nn4CCO)c3c2)cn1 (stereo not shown) [A106]
Ans: 1 to 10 µM
